# Test system: A498 renal
# assay details: NCI tumour cell line growth inhibition, 48 h
Property: TGI; scope: individual molecules
measured endpoint: TGI

> print(dat)
                                    molecule  meas.value
 1  Cn1ccnc1C(=O)/C=C/c1ccc(CC(=O)Nc2cc(F)c(F)c(F)c2)cc1     7.65 µM
 2  NS(=O)(=O)c1ccc(N=Nc2cc3ccccc3c(C(=O)O)c2O)cc1   > 86.8 µM
 3                     Nc1cc2ccncc2c2ccccc12     13.7 µM
 4      O=c1[nH]c(=O)c2c([nH]1)[nH]c1ccccc12    > 100 µM
 5  Cc1nc(C)c(C(=O)NNC(=O)c2ccccc2)cc1C(=O)NNC(=O)c1ccccc1    > 100 µM
 6  Cc1cncc2cccc(S(=O)(=O)N3CCCNC[C@@H]3C)c12     17.7 µM
 7           CN(C)CC(C)(C)C(=O)/C=C/c1ccccc1     39.5 µM
 8  COC(=O)[C@@H](C)C[C@H](Cc1ccccc1)NC(=O)c1csc([C@@H](C[C@H](C(C)C)N(C)C(=O)[C@@H](NC(=O)CN(C)C)C2CC2)OC(C)=O)n1    > 7.5 µM
 9  CCOC(=O)CCN1C(=O)c2c(NC(=O)C(=O)O)cccc2S1(=O)=O    > 100 µM
10  CC1CC2OC(=N)C1(C#N)C2(C#N)C#N (stereo not given)       42 µM
